Source of measurements: ChEMBL document CHEMBL1129597

tested on: WiDr; test: The compound tested for activity againstHuman colon carcinoma sensitive WiDr cell line.; format: functional, cell-based; settings: Homo sapiens
METRIC: pIC50
Answers are plain numbers, as −log10 of the molar value.

Bench note, WiDr: entry `Cc1ccc2cc3ccccc3c3c2c1C(=O)N(CCN(C)C)C3=O` , its pIC50 = 7.22

---

tested on: L1210; experiment: Antitumor activity against murine leukemia L1210 cell line.; type: functional, cell-based; details: Mus musculus
METRIC: log10 of IC50 (log10 of the value in nM)
Plainly stated, the numbers are log10 of IC50 given in nM.

A selection of reference data follows.
CN(C)CCN1C(=O)c2cccc3cc4cccc(O)c4c(c23)C1=O | 2.28
COc1ccc2cc3ccccc3c3c2c1C(=O)N(CCN(C)C)C3=O | 2.25
CNCCN1C(=O)c2cccc3cc4ccc(Cl)cc4c(c23)C1=O | 1.16

I need log10 of IC50 for every entry listed below, if you could help.
1. CN(C)CCN1C(=O)c2cccc3cc4c(O)cccc4c(c23)C1=O
2. COc1ccc2cc3cccc4c3c(c2c1)C(=O)N(CCN(C)C)C4=O

stdout:
[1.83, 1.72]

Field: log10 of IC50. Fill in for each record below.
1. CN(C)CCN1C(=O)c2cccc3cc4c(Cl)cccc4c(c23)C1=O
2. CN(C)CCN1C(=O)c2cccc3cc4ccc(Cl)cc4c(c23)C1=O
3. Cc1ccc2cc3cccc4c3c(c2c1)C(=O)N(CCN(C)C)C4=O
4. CN(C)CCN1C(=O)c2cccc3cc4ccc(O)cc4c(c23)C1=O
5. CCOc1ccc2cc3cccc4c3c(c2c1)C(=O)N(CCN(C)C)C4=O

stdout:
1. 1.26
2. 0.89
3. 1.73
4. 2.73
5. 1.70

---

I'd be grateful if you could share measured pIC50 for these entries.
system: WiDr; assay: Activity against human colon carcinoma sensitive WiDr cell line.; type: functional, cell-based
Give bare numbers, as −log10 of the molar value.

Use the examples below as a reference point.
CN(C)CCN1C(=O)c2cccc3cc4ccc(-c5ccccc5)cc4c(c23)C1=O | 6.74
CN(C)CCN1C(=O)c2c(O)ccc3cc4ccccc4c(c23)C1=O | 5.65
Cc1ccc2cc3cccc4c3c(c2c1)C(=O)N(CCN(C)C)C4=O | 6.92
CN(C)CCN1C(=O)c2cccc3cc4ccc(O)cc4c(c23)C1=O | 7.77
CN(C)CCN1C(=O)c2cccc3cc(N)cc(c23)C1=O [AMONAFIDE] | 5.96
CN(C)CCN1C(=O)c2cccc3cc4cccc(O)c4c(c23)C1=O | 7.00
CN(C)CCN1C(=O)c2cccc3cc4cc(O)ccc4c(c23)C1=O | 7.77
CN(C)CCN1C(=O)c2cccc3cc4ccc(I)cc4c(c23)C1=O | 7.40

Lab note: each compound below needs its pIC50 filled in.
1. CNCCN1C(=O)c2cccc3cc4ccc(Cl)cc4c(c23)C1=O
2. CN(C)CCN1C(=O)c2cccc3cc4c(Cl)cccc4c(c23)C1=O
3. CN(C)CCN1C(=O)c2cccc3cc4ccc(C#N)cc4c(c23)C1=O

stdout:
7.29
7.70
7.96

---

test: The quotient of the IC50 in the myocytes divided by the mean IC50 in the three cell lines; format: ADME, cell-based; conditions: myocytes versus three cell lines; read-out: Toxicity ratio
METRIC: selectivity ratio

Quick note, selectivity ratio for `CN(C)CCN1C(=O)c2cccc3cc4c(Cl)cccc4c(c23)C1=O` landed at 22.8

---

system: MCF7; test: Antitumor activity against human mammary carcinoma mitoxantrone-resistant […] breast cell line.; type: functional, cell-based
METRIC: pIC50
Answers are plain numbers, as −log10 of the molar value.

Below, 8 molecules whose answers are already recorded.
CNCCN1C(=O)c2cccc3cc4ccc(Cl)cc4c(c23)C1=O | 7.38
CN(C)CCN1C(=O)c2cccc3cc4ccc(O)cc4c(c23)C1=O | 7.77
CN(C)CCN1C(=O)c2cccc3cc4ccc(Cl)cc4c(c23)C1=O | 7.32
CN(C)CCN1C(=O)c2c(Cl)ccc3cc4ccccc4c(c23)C1=O | 7.22
CN(C)CCN1C(=O)c2cccc3cc4c(O)cccc4c(c23)C1=O | 6.92
CN(C)CCN1C(=O)c2cccc3cc4cc(O)ccc4c(c23)C1=O | 7.77
COc1cccc2c3c4c(cccc4cc12)C(=O)N(CCN(C)C)C3=O | 8.27
COc1ccc2cc3cccc4c3c(c2c1)C(=O)N(CCN(C)C)C4=O | 7.39

Provide pIC50 values for the following items, in order.
1. CN(C)CCN1C(=O)c2cccc3cc4c(Cl)cccc4c(c23)C1=O
2. COc1ccc2cc3ccccc3c3c2c1C(=O)N(CCN(C)C)C3=O

stdout:
7.72
6.28

For `CN(C)CCN1C(=O)c2cccc3cc4ccc(I)cc4c(c23)C1=O` the molecule record lists pIC50 as 7.31

---

test system: WiDr; test: Activity against human colon carcinoma multi drug resistant (MDR)-WiDr cell line.; assay type: functional, cell-based
METRIC: IC50 (µM)
Numbers only, in µM.

CN(C)CCN1C(=O)c2cccc3cc(N)cc(c23)C1=O [AMONAFIDE] | 2.2
CN(C)CCN1C(=O)c2cccc3cc4c(Cl)cccc4c(c23)C1=O | 0.11
CN(C)CCN1C(=O)c2cccc3cc4cc(Cl)ccc4c(c23)C1=O | 0.14
CN(C)CCN1C(=O)c2cccc3cc4ccc([N+](=O)[O-])cc4c(c23)C1=O | 0.074

With those in mind, consider the next molecule.
The recorded IC50 for `CN(C)CCN1C(=O)c2cccc3cc4ccc(O)cc4c(c23)C1=O` is 0.24

---

system: L1210; assay: Compound was tested for antitumor activity against l. Sensitive leukemia cell lines (L1210).; assay type: functional, cell-based; settings: Mus musculus
METRIC: pIC50
One number for each entry, as −log10 of the molar value.

Value of measured pIC50 for the entry `CN(C)CCN1C(=O)c2cccc3cc4cc(O)ccc4c(c23)C1=O` : 8.27

---

tested on: MCF7; test: Compound was tested for antitumor activityHuman mammary carcinoma Doxorubicin resistant […] breast cell line.; assay type: functional, cell-based; settings: Homo sapiens
METRIC: pIC50
Give bare numbers, as −log10 of the molar value.

Input `CN(C)CCN1C(=O)c2c(O)ccc3cc4ccccc4c(c23)C1=O` . Output pIC50: 5.55

---

tested on: A549; test: Activity against A549 cancer cell line.; format: functional, cell-based; conditions: Homo sapiens
Strictly below 7 nM in IC50: met. Otherwise: not met.

Worked examples follow.
Cc1ccc2cc3cccc4c3c(c2c1)C(=O)N(CCN(C)C)C4=O | not met
Cc1ccc2cc3ccccc3c3c2c1C(=O)N(CCN(C)C)C3=O | not met
CN(C)CCN1C(=O)c2cccc3cc4ccc([N+](=O)[O-])cc4c(c23)C1=O | met
COc1cccc2c3c4c(cccc4cc12)C(=O)N(CCN(C)C)C3=O | met
CN(C)CCN1C(=O)c2cccc3cc4ccc(C#N)cc4c(c23)C1=O | met

stdin: # strict comparison: is reported IC50 < 7 nM? input = `CNCCN1C(=O)c2cccc3cc4ccc(Cl)cc4c(c23)C1=O`
stdout: not met

stdin: A record lists `CN(C)CCN1C(=O)c2cccc3cc4ccc(Cl)cc4c(c23)C1=O` . Is its IC50 below 7 nM?
stdout: not met

stdin: Take the compound `CN(C)CCN1C(=O)c2cccc3cc4ccc(-c5ccccc5)cc4c(c23)C1=O` and say whether its IC50 is less than 7 nM.
stdout: not met

stdin: Answer whether the compound `CN(C)CCN1C(=O)c2c(Cl)ccc3cc4ccccc4c(c23)C1=O` has IC50 strictly less than 7 nM
stdout: not met

---

test system: WiDr (Homo sapiens); test: Compound was tested for antitumor activity against The compound tested for activity against Human colon carcinoma sensitive WiDr cell line.
METRIC: pIC50
One number for each entry, as −log10 of the molar value.

pIC50 on WiDr (Homo sapiens) for `CN(C)CCN1C(=O)c2c(Cl)ccc3cc4ccccc4c(c23)C1=O` is 7.05

---

Exercise: state measured pIC50 for each of the compounds provided.
tested on: WiDr; assay: Activity against human colon carcinoma multi drug resistant (MDR)-WiDr cell line.; format: functional, cell-based
Numbers only, as −log10 of the molar value.

See these solved cases before continuing.
COc1ccc2c3c4c(cccc4cc2c1)C(=O)N(CCN(C)C)C3=O | 6.89
CN(C)CCN1C(=O)c2cccc3cc4ccc(F)cc4c(c23)C1=O | 7.89
CN(C)CCN1C(=O)c2cccc3cc4c(O)cccc4c(c23)C1=O | 6.05
CN(C)CCN1C(=O)c2cccc3cc4ccc(I)cc4c(c23)C1=O | 6.89
CN(C)CCN1C(=O)c2cccc3cc4ccc(C#N)cc4c(c23)C1=O | 7.80
Cc1ccc2cc3ccccc3c3c2c1C(=O)N(CCN(C)C)C3=O | 6.92

Please give pIC50, item by item, for the list that follows.
1. CCOc1ccc2cc3cccc4c3c(c2c1)C(=O)N(CCN(C)C)C4=O
2. COc1cccc2c3c4c(cccc4cc12)C(=O)N(CCN(C)C)C3=O
3. CN(C)CCN1C(=O)c2cccc3cc4cccc(O)c4c(c23)C1=O
4. CN(C)CCN1C(=O)c2cccc3cc4cccc(Cl)c4c(c23)C1=O
5. COc1ccc2cc3cccc4c3c(c2c1)C(=O)N(CCN(C)C)C4=O

stdout:
1. 6.92
2. 7.52
3. 6.57
4. 6.00
5. 7.21
